# EXPERIMENTAL SYSTEM: HCV NS5B (Hepatitis C virus genotype 1b)
# Construct: The protein was expressed with an 18 amino acid C-terminal truncation to enhance the solubility; made in house; host or cells: E. coli BL21(DE3)
# METHOD NOTES: HCV NS5B RdRp enzyme assay (standard / modified)
# Assay type: biochemical
# ASSAY CONDITIONS: HCV RdRp genotype 1b; standard or modified assay not specified; read-out: IC50
PROPERTY: IC50

MOLECULE: COc1ccc2c(c1)C1CC1(C(=O)N1[C@@H]3C[C@H]1CN(C(C)=O)C3)Cn1c-2c(C2CCCCC2)c2ccc(C(=O)NS(=O)(=O)N(C)C)cc21 (stereo partly drawn)
EXPERIMENTAL SYSTEM: HCV NS5B (Hepatitis C virus genotype 1b)
IC50: 2.4 to 500 nM

Challenge: What does the data say about its IC50? Entry: COc1ccc2c(c1)C1CC1(NC(=O)N1CC3CN(Cc4ccccc4)CC(C1)N3Cc1ccccc1)Cn1c-2c(C2CCCCC2)c2ccc(C(=O)NS(=O)(=O)N(C)C)cc21 (stereo not drawn)
Response given: 500 to 5000 nM

Challenge: Would you kindly share the measured IC50 for COc1ccc2c(c1)C1CC1(C(=O)N1C3CC1CN(C)C3)Cn1c-2c(C2CCCCC2)c2ccc(C(=O)NS(=O)(=O)CC(F)F)cc21 (stereo not drawn) ?
Response given: 2.4 to 500 nM

---

The following compounds are listed with their measured IC50 values.
# EXPERIMENTAL SYSTEM: HCV NS5B (Hepatitis C virus genotype 1b, UniProt Q9WMX2)
# Construct: The protein was expressed with an 18 amino acid C-terminal truncation to enhance the solubility; made in house; host or cells: E. coli BL21(DE3)
# Sequence (Q9WMX2 2420-2992): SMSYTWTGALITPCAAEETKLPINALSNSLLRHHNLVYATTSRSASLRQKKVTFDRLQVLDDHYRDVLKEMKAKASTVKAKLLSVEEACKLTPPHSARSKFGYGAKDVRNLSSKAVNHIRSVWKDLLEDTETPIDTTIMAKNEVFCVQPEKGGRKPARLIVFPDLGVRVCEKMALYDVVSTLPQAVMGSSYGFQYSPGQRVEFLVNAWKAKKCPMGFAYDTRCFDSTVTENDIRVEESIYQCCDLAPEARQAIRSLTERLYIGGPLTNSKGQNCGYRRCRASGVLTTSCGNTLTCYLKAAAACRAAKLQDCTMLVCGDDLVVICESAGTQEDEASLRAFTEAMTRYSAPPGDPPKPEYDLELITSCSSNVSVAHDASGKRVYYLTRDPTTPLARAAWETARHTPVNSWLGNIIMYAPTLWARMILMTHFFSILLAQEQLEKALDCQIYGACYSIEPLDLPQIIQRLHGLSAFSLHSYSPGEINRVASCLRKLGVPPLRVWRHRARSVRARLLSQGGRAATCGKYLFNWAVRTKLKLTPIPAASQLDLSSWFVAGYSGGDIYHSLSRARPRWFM
# METHOD NOTES: HCV NS5B RdRp enzyme assay (standard / modified)
# Assay type: biochemical
# ASSAY CONDITIONS: HCV RdRp genotype 1b; standard or modified assay not specified; read-out: IC50

A selection of reference data follows.
COMPOUND: COc1ccc2c(c1)C1CC1(C(=O)N1C3CC1CN(C)C3)Cn1c-2c(C2CCCCC2)c2ccc(C(=O)NS(=O)(=O)C3CCC3)cc21 (stereo not shown)
IC50: 2.4 to 500 nM

COMPOUND: COc1ccc2c(c1)C1CC1(C(=O)N1C3CN(C)CC1CN(C(C)C)C3)Cn1c-2c(C2CCCCC2)c2ccc(C(=O)NS(=O)(=O)N(C)C)cc21 (stereo not shown)
IC50: 2.4 to 500 nM

COMPOUND: CCN(C)S(=O)(=O)NC(=O)c1ccc2c(C3CCCCC3)c3n(c2c1)CC1(C(=O)N2C4CC2CN(C)C4)CC1c1cc(OC)ccc1-3 (stereo not shown)
IC50: 2.4 to 500 nM

COMPOUND: COc1ccc2c(c1)C1CC1(C(=O)N1C3CNCC1CN(C)C3)Cn1c-2c(C2CCCCC2)c2ccc(C(=O)NS(=O)(=O)N(C)C)cc21 (stereo not shown)
IC50: 2.4 to 500 nM

COMPOUND: COc1ccc2c(c1)C1CC1(C(=O)N1C3CC1CN(C)C3)Cn1c-2c(C2CCCCC2)c2ccc(C(=O)NS(=O)(=O)C3CCCC3)cc21 (stereo not shown)
IC50: 2.4 to 500 nM

Challenge: Field request: IC50 | item: COc1ccc2c(c1)C1CC1(C(=O)N1C3CC1CN(Cc1ccccc1)C3)Cn1c-2c(C2CCCCC2)c2ccc(C(=O)NS(=O)(=O)C(C)C)cc21 (stereo not shown)
Response given: 2.4 to 500 nM

Challenge: Requested read-out: IC50. Entry: COc1ccc2c(c1)C1CC1(C(=O)N1C[C@H]3C[C@@H]1CN3C)Cn1c-2c(C2CCCCC2)c2ccc(C(=O)NS(N)(=O)=O)cc21 (stereo partly shown)
Response given: 2.4 to 500 nM

Challenge: Data request, read-out IC50, for COc1ccc2c(c1)C1CC1(C(=O)N1CC3CN(Cc4ccccc4)CC(C1)N3Cc1ccccc1)Cn1c-2c(C2CCCCC2)c2ccc(C(=O)NS(=O)(=O)N(C)C)cc21 (stereo not shown)
Response given: 2.4 to 500 nM

Challenge: Item CCC(C)S(=O)(=O)NC(=O)c1ccc2c(C3CCCCC3)c3n(c2c1)CC1(C(=O)N2C4COCC2COC4)CC1c1cc(OC)ccc1-3 (stereo not shown) has what recorded IC50?
Response given: 2.4 to 500 nM

Challenge: Requested read-out: IC50. Entry: COc1ccc2c(c1)C1CC1(C(=O)N1C[C@H]3C[C@@H]1CN3CC(C)C)Cn1c-2c(C2CCCCC2)c2ccc(C(=O)NS(=O)(=O)N3CCC3)cc21 (stereo partly shown)
Response given: 2.4 to 500 nM

Challenge: # IC50 lookup, item COc1ccc2c(c1)C1CC1(C(=O)N1C3COC[C@@H]1CN(C)C3)Cn1c-2c(C2CCCCC2)c2ccc(C(=O)NS(=O)(=O)C3CCCC3)cc21 (stereo partly shown)
Response given: 2.4 to 500 nM

Challenge: What measured IC50 goes with COc1ccc2c(c1)C1CC1(C(=O)N1C3CC1CN(C)C3)Cn1c-2c(C2CCCCC2)c2ccc(C(=O)NS(=O)(=O)C(C)C)cc21 (stereo not shown) ?
Response given: 2.4 to 500 nM

Challenge: Which IC50 value belongs to CCN1C[C@H]2C[C@@H]1CN2C(=O)C12CC1c1cc(OC)ccc1-c1c(C3CCCCC3)c3ccc(C(=O)NS(=O)(=O)C4CC4)cc3n1C2 (stereo partly shown) [drawing 44] ?
Response given: 2.4 to 500 nM

From: patent US7547690B2
